measuredTarget: human MET ECD mutant D (mutations 1, 2) (human) (UniProt P08581)
protocolSummary: ELISA, MET ECD mutant in solid phase, mAb 0-50 nM
readoutKind: % binding (EMAX) compared to WT MET (%)
Numbers only; they are read as %.

Lab note: chimeric llama-human IgG1 mAb 71C3 (antibody, V domains shown) VH: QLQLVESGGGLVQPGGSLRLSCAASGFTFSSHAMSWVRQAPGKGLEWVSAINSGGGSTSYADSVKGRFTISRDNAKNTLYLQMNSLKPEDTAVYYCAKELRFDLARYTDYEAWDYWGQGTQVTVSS VL: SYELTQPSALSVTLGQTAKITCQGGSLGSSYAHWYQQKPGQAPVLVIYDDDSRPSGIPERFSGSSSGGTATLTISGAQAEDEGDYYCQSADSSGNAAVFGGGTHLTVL gave % binding (EMAX) compared to WT MET of 102
